Data credit: patent US20070020327A1

- target.of.assay: HLA-A*0202 (human)
- assay.info: competition with 125I-labelled standard peptide for purified HLA, gel filtration
quantity.kind: binding affinity ratio (IC50 of the standard peptide / IC50 of the test peptide)

binder="YTKVVHYRKWI (modifications not checked) [Kallikrein 243 peptide …]" val=-0.0001
binder="YASGWGSI (modifications not checked) [Kallikrein 153 peptide YASGWGSI]" val=0.0009

A. YASGWGSI (modifications not checked) [PSA 149 peptide YASGWGSI]
B. YTKVVHYRKWI (modifications not checked) [PSA 239 peptide …]
Which value of binding affinity ratio (IC50 of the standard peptide / IC50 of the test peptide) is numerically greater: that of A or that of B ? Record your answer as the label of the chosen record.
A
